target: human ORL-1 receptor (opioid receptor like 1) (human, UniProt P41146 1-370); experiment: cell-based or functional assay
Sequence (P41146 whole entry): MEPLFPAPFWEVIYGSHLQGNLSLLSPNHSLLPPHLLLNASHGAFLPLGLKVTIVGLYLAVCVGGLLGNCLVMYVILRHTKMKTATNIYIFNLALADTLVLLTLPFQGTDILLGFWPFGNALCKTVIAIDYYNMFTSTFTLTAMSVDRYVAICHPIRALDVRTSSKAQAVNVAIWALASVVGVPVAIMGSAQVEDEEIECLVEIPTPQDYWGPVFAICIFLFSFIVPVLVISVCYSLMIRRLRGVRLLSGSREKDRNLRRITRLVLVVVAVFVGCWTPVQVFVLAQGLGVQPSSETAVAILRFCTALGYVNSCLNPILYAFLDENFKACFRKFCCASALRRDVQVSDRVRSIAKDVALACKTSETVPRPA
Numbered stars: 1 amine (or outer) side, 2 acyl side, 3 side chain; on linkers, the order of the positions; unused ones are H or OH. Square brackets hold non-standard residues; d marks the D form. Tyr(BN,3-Cl) = tyrosine with benzyl (BN) and 3-Cl, O=C([C@H](Cc1ccc(OCc2ccccc2)c(Cl)c1)N[*:1])[*:2]; Phe(4-CH2SO3H) = N[C@@H](Cc1ccc(CS(=O)(=O)O)cc1)C(=O)O; Phe(4-NO2) = N[C@@H](Cc1ccc([N+](=O)[O-])cc1)C(=O)O; Phe(4-COOH) = N[C@@H](Cc1ccc(C(=O)O)cc1)C(=O)O; Ahx = NCCCCCC(=O)O
Label criterion met for high-side % Stimulation of [35S]GTPγS binding (at or above 60%) and criterion not met for low-side % Stimulation of [35S]GTPγS binding (below it).

Before answering, review these 2 worked examples.
>>> class("Ac-[Ahx]YYRWR-NH2 (SMILES CC(=O)NCCCCCC(=O)N[C@@H](Cc1ccc(O)cc1)C(=O)N[C@@H](Cc1ccc(O)cc1)C(=O)N[C@@H](CCCNC(=N)N)C(=O)N[C@@H](Cc1c[nH]c2ccccc12)C(=O)N[C@@H](CCCNC(=N)N)C(N)=O, also called Ac-ε-aminocaproyl-Tyr-Tyr-Arg-Trp-Arg-NH2) [VII-53-B]")
"criterion not met"
>>> class("Ac-R[Phe(4-COOH)]YRWR-NH2 (SMILES CC(=O)N[C@@H](CCCNC(=N)N)C(=O)N[C@@H](Cc1ccc(C(=O)O)cc1)C(=O)N[C@@H](Cc1ccc(O)cc1)C(=O)N[C@@H](CCCNC(=N)N)C(=O)N[C@@H](Cc1c[nH]c2ccccc12)C(=O)N[C@@H](CCCNC(=N)N)C(N)=O, also called Ac-Arg-Phe(4-COOH)-Tyr-Arg-Trp-Arg-NH2) [VII-19-B]")
"criterion not met"

Task item: Dear colleague, could you confirm whether Nipacotyl-RYYRWR-NH2 (also called Nipacotyl-Arg-Tyr-Tyr-Arg-Trp-Arg-NH2) [VII-1-A] has % Stimulation of [35S]GTPγS binding at or above 60%?
Reply: criterion not met

Task item: I'd appreciate it if you could say whether Ac-R[Tyr(BN,3-Cl)]YRWR-NH2 (also called Ac-Arg-Tyr(BN*, 3-Cl)-Tyr-Arg-Trp-Arg-NH2) [VII-39-D] has % Stimulation of [35S]GTPγS binding at least equal to 60%.
Reply: criterion met

Task item: Please tell me: is the binder Ac-RY[Phe(4-CH2SO3H)]RWR-NH2 (SMILES CC(=O)N[C@@H](CCCNC(=N)N)C(=O)N[C@@H](Cc1ccc(O)cc1)C(=O)N[C@@H](Cc1ccc(CS(=O)(=O)O)cc1)C(=O)N[C@@H](CCCNC(=N)N)C(=O)N[C@@H](Cc1c[nH]c2ccccc12)C(=O)N[C@@H](CCCNC(=N)N)C(N)=O, also called Ac-Arg-Tyr-Phe(4-CH2SO3H)-Arg-Trp-Arg-NH2) [VII-75-B] at or over 60% in terms of % Stimulation of [35S]GTPγS binding?
Reply: criterion not met

Task item: Does the binder Ac-RY[Phe(4-NO2)]RWR-NH2 (SMILES CC(=O)N[C@@H](CCCNC(=N)N)C(=O)N[C@@H](Cc1ccc(O)cc1)C(=O)N[C@@H](Cc1ccc([N+](=O)[O-])cc1)C(=O)N[C@@H](CCCNC(=N)N)C(=O)N[C@@H](Cc1c[nH]c2ccccc12)C(=O)N[C@@H](CCCNC(=N)N)C(N)=O, also called Ac-Arg-Tyr-Phe(4-NO2)-Arg-Trp-Arg-NH2) [VII-63-B] have recorded % Stimulation of [35S]GTPγS binding that is 60% or more?
Reply: criterion not met
